Tested on: nitrites and nitrates (NOx-)
ASSAY NOTES: Measurement of nitrates/nitrites (NOx-) in brain regions after the morphine abstinence experiment
Format: in vivo, Wistar rats
MEASUREMENT PARAMETERS: Morphine + compound, 3 x 20 mg/kg intramuscularly; one value for the three compounds
RESULT TYPE: Nitrites, brainstem

Observe how each entry below is paired with its result.
O=c1[nH][nH]c(=O)c2c(Br)ncnc12.[K] [Compound 37]: 6.87 ± 0.81 nmol/mg of protein
O=c1[nH][nH]c(=O)c2ncccc12.[Li] [Compound 6]: 6.57 ± 0.72 nmol/mg of protein
O=C([O-])c1ccc2c(=O)[nH][nH]c(=O)c2c1.O=C([O-])c1ccc2c(=O)[nH][nH]c(=O)c2c1.[Na+].[Na+] [Compound 18]: 6.99 ± 0.82 nmol/mg of protein
O=c1[nH]n([C@@H]2O[C@H](CO)[C@@H](O)[C@H]2O)c(=O)c2nccc(O)c12.[Na] [Compound 4]: 6.57 ± 0.72 nmol/mg of protein
O=C([O-])c1cnc2c(=O)[nH]n([C@@H]3O[C@H](CO)[C@@H](O)[C@H]3O)c(=O)c2n1.O=C([O-])c1cnc2c(=O)[nH]n([C@@H]3O[C@H](CO)[C@@H](O)[C@H]3O)c(=O)c2n1.[Na+].[Na+] [Compound 24]: 7.07 ± 0.85 nmol/mg of protein
Nc1cnc2c(=O)n([C@@H]3O[C@H](CO)[C@@H](O)[C@H]3O)[nH]c(=O)c2n1.[Na] [Compound 21]: 7.07 ± 0.85 nmol/mg of protein

API: the following record is the query input.
## Input Report Nitrites, brainstem on nitrites and nitrates (NOx-) for this entry: O=c1[nH]n([C@@H]2O[C@H](CO)[C@@H](O)[C@H]2O)c(=O)c2nc(Br)ncc12.[Na] [Compound 32]
## Output 6.87 ± 0.81 nmol/mg of protein
